Exercise: for every item that follows, state its recorded IC50.
- tested.on: NR1/NR2B (Homo sapiens (Human), UniProt Q13224)
- Sequence (Q13224 27-1484, other chains not shown): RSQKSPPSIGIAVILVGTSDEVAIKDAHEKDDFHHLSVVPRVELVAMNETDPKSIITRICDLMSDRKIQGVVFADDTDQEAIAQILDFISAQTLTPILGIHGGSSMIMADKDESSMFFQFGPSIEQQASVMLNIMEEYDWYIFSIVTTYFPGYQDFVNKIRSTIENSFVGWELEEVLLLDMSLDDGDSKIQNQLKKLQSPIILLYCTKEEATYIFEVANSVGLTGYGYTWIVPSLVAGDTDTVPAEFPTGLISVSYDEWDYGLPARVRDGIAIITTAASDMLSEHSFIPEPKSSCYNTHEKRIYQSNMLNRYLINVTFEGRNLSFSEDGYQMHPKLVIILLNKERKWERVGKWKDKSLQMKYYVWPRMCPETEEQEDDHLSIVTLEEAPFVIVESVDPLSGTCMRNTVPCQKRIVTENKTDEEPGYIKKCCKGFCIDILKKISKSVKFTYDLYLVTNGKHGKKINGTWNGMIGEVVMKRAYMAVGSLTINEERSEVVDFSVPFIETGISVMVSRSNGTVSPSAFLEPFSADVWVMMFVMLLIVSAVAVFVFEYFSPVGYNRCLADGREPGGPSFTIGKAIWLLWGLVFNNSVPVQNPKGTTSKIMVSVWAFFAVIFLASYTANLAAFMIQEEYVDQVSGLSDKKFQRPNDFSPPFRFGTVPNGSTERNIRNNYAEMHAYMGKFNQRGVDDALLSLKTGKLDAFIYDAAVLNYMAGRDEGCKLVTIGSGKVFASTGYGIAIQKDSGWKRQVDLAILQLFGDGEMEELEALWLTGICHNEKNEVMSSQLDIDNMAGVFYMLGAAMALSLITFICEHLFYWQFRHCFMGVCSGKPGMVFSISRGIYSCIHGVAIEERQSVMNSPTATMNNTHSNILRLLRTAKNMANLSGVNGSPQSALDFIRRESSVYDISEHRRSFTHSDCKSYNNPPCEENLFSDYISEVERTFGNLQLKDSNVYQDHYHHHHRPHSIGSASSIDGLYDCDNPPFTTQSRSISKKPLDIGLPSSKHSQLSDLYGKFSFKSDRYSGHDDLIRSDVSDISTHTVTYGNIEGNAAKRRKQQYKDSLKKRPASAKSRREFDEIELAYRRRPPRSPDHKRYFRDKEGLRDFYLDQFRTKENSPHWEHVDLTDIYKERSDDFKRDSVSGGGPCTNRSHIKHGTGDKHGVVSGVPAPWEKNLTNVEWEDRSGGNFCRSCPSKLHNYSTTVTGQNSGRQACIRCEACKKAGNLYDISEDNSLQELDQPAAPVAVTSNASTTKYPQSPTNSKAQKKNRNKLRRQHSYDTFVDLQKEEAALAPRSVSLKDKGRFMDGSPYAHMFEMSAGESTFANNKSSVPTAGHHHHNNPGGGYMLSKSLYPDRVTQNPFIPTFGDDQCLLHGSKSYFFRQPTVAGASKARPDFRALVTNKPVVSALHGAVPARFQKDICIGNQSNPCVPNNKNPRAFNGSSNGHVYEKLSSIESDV
- assay.overview: Cell assay: FDSS Ca2+ influx inhibition in HEK293 cells expressing NR1/NR2B
- conditions.used: read-out: NR2B NAM IC50; HEK293 cells expressing NR1/NR2B, Ca2+ influx
Express your answer in µM, writing the number without its unit.

Requested field: IC50. Item: O=C(CN1C[C@@H]2C[C@@](O)(Cc3ccc(F)cc3)C[C@@H]2C1)c1ccc(O)cn1
6.4

Requested field: IC50. Item: COc1ccc(C[C@]2(O)C[C@H]3CN(CC(=O)c4ccc(O)cc4)C[C@H]3C2)cc1
0.0433

Requested field: IC50. Item: O=C(CN1C[C@@H]2C[C@@](O)(Cc3ccccn3)C[C@@H]2C1)c1ccc(O)cc1
0.965

Requested field: IC50. Item: O=C(Cc1ccc(O)cc1)CN1C[C@@H]2C[C@@](O)(Cc3ccccc3)C[C@@H]2C1
10

Requested field: IC50. Item: Cc1ccccc1-c1ccc(C(=O)CN2C[C@@H]3C[C@@](O)(Cc4ccccc4)C[C@@H]3C2)cc1
10

Requested field: IC50. Item: O=C(CN1C[C@H]2C[C@H](Cc3ccccc3)C[C@H]2C1)c1ccc(O)cc1
0.0535

Requested field: IC50. Item: Cc1ccccc1[C@]1(O)C[C@H]2CN(c3cccc(C(F)(F)F)n3)C[C@H]2C1
10

---

- tested.on: NR1/NR2B (Homo sapiens (Human), UniProt Q05586+Q13224)
- Sequence (Q13224 27-1484, other chains not shown): as above
- assay.overview: Cell assay: FDSS Ca2+ influx inhibition in HEK293 cells expressing NR1/NR2B
- conditions.used: NR2B NAM IC50, HEK293 cells expressing NR1/NR2B, Ca2+ influx
Exercise: for every item that follows, state its recorded IC50.
Express your answer in nM, writing the number without its unit.

Requested field: IC50. Item: Cc1ccc(C[C@]2(O)C[C@H]3CN(CC(O)c4ccc(O)cc4)C[C@H]3C2)cc1 (mixture of isomers)
41.5

Requested field: IC50. Item: Oc1ccc(C(O)CN2C[C@@H]3C[C@@](O)(Cc4ccc(F)cc4F)C[C@@H]3C2)nc1 (mixture of isomers)
29.9

Requested field: IC50. Item: Oc1ccc(C(O)CN2C[C@@H]3C[C@@](O)(Cc4ccccc4)C[C@@H]3C2)nc1 (mixture of isomers)
26.8

Requested field: IC50. Item: COc1cccc(C[C@]2(O)C[C@H]3CN(CC(O)c4ccc(O)c(F)n4)C[C@H]3C2)c1 (mixture of isomers)
382

Requested field: IC50. Item: Oc1ccc(C(O)CN2C[C@@H]3C[C@@](O)(Cc4ccc(Cl)cc4)C[C@@H]3C2)nc1 (mixture of isomers)
11.5

---

- tested.on: NR1/NR2B (Homo sapiens (Human))
- assay.overview: Cell assay: FDSS Ca2+ influx inhibition in HEK293 cells expressing NR1/NR2B;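 further: Fluo-8 Ca2+ signal read on Hamamatsu FDSS 6000 after glutamate, glycine and Ca2+ challenge following 10 min compound preincubation, end/baseline fluorescence ratio compared with MK801 control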
- conditions.used: read-out: NR2B NAM IC50
Exercise: for every item that follows, state its recorded IC50.
Express your answer in µM, writing the number without its unit.

Requested field: IC50. Item: Cc1ccc(NC(=O)N2C[C@@H]3C[C@@](O)(c4ccccc4)C[C@@H]3C2)cc1
10

Requested field: IC50. Item: CC(C(=O)c1ccc(O)cc1)N1C[C@H]2C[C@@H](CCc3ccccc3)C[C@H]2C1 (stereo partly drawn)
0.192

Requested field: IC50. Item: O=C(CN1CC2CC(Cc3ccccc3)CC2C1)c1ccc(O)c(F)c1 (stereo not drawn)
0.0781

Requested field: IC50. Item: Cc1ccccc1[C@]1(O)C[C@H]2CN(C(=O)Nc3ccccc3)C[C@H]2C1
10

Requested field: IC50. Item: COc1ccc(C)cc1NC(=O)N1C[C@@H]2C[C@@](O)(c3ccccc3)C[C@@H]2C1
10

Requested field: IC50. Item: COc1cccc([C@]2(O)C[C@H]3CN(CC(=O)c4ccccc4)C[C@H]3C2)c1
10
